System: Pseudomonas aeruginosa
test.protocol: Antimicrobial activity against Pseudomonas aeruginosa ATCC 9027 after 24 hr by two-fold dilution method
Format: functional
test.conditions: ATCC 9027, 24 h
The following compounds are shown together with reported MIC values.
Output spec: scalar in µg/mL, unitless text.

Query: If you can, please state the reported MIC value of CCSc1nnc(NC(=O)c2cc(-c3ccccc3)nc3ccccc23)s1 .
Result: 62.5

Query: Another compound: O=C(Nc1nnc(S(=O)(=O)Cc2ccccc2)s1)c1ccnc2ccccc12
Result: 62.5

====

compounds and their reported MIC
Test system: Pseudomonas aeruginosa
test.protocol: Antimicrobial activity against Pseudomonas aeruginosa ATCC 9027 after 24 hr by two-fold dilution method
Type: functional
test.conditions: ATCC 9027, 24 h
Use µg/mL as the unit, but write only the number.

Here are 2 compounds together with their reported answers.
structure.as.smiles	system	experimental.value
CCS(=O)(=O)c1nnc(NC(=O)c2ccnc3ccccc23)s1	Pseudomonas aeruginosa	125
O=C(O)c1cn(C2CC2)c2cc(N3CCNCC3)c(F)cc2c1=O	Pseudomonas aeruginosa	4

Let's switch to this compound now.
Query: Form field: reported MIC of CSc1nnc(NC(=O)c2cc(-c3ccccc3)nc3ccccc23)s1
Result: 250
